- System: RAW264.7
- measurement.description: Cytotoxicity against mouse RAW264.7 cells at 0.01 to 100 uM after 24 hrs by MTT assay
- Format: cell-based
- cond: raw264.7, 24 h
readout.type: Activity

> print(dat)
                                test.smiles  assayed.target  reported.measurement
1  O=c1cc(-c2ccc(O)c(O)c2)oc2cc(O[C@@H]3O[C@H](CO)[C@@H](O)[C@H](O)[C@H]3O)cc(O)c12        RAW264.7             Non-toxic
2   O=c1cc(-c2ccc(O)c(O)c2)oc2cc(O)cc(O)c12        RAW264.7             Non-toxic
3  C=C(C(=O)O)[C@@H]1CC[C@H](C)[C@]2(O)CC(=O)C(C)=C2C1        RAW264.7             Non-toxic
